Stated conditions: buffer; pH 7.4; 200.0 µM
Measured property: solubility kinetic

INSERT INTO assay_data (compound, obs_value) VALUES
  ('COc1ccc2cc(C(=O)N3CCN(C)CC3)[nH]c2c1', '> 41 µg/mL'),
  ('CCc1ccccc1NC(=S)N(Cc1cccs1)C1CCCC1', '13.9 µg/mL'),
  ('COc1cccc(C(=O)c2c[nH]c(C(=O)NCCCN(C)C)c2)c1', '> 49.4 µg/mL'),
  ('CCC(NC(=S)NC1CCCCC1)c1ccc(C)cc1 (stereo unspecified)', '5.3 µg/mL'),
  ('CN1CCCC(OC(=O)c2ccc(C(C)(C)C)cc2)C1.Cl (stereo unspecified)', '> 46.8 µg/mL'),
  ('CCCCOCCCNC(=O)N[C@H](C(=O)O)C(C)CC (stereo partly specified)', '> 43.3 µg/mL');
